Origin of values: patent US20090298167A1

# TESTED SYSTEM: human IL-21R expressed on cells (human, UniProt Q9HBE5 20-538)
# Sequence (Q9HBE5 20-538 limits assumed): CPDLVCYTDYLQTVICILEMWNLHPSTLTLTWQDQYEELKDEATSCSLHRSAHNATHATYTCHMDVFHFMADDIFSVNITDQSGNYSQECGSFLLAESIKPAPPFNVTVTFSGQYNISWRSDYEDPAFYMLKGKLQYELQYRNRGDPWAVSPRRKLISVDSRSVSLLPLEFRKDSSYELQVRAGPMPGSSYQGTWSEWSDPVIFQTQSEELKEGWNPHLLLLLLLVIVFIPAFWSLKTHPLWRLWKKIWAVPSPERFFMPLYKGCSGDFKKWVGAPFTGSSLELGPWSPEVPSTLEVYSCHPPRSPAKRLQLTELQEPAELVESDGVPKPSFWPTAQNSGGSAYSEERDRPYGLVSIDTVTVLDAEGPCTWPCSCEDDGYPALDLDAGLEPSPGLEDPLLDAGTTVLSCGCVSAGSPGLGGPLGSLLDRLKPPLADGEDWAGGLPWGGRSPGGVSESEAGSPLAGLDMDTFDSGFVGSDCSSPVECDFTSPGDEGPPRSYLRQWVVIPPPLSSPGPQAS
# ASSAY: cell-based or functional assay
MEASURED PARAMETER: Human IL-21R-BaF3 Neutralization IC50 (pM)
All answers are understood in pM, so give the number only.

{"columns": ["BINDER", "Human IL-21R-BaF3 Neutralization IC50, pM"],
 "data": [
  ["AbS (antibody, human IgG1, V domains shown, Human IgG1 triple-mutant (L234A, L235A, G237A); Framework limits derived; also called VHP/VL6; VHPTM/VL6) VH: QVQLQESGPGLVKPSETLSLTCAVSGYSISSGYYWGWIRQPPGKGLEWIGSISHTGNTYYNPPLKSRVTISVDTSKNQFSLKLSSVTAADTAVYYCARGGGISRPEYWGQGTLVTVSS VL: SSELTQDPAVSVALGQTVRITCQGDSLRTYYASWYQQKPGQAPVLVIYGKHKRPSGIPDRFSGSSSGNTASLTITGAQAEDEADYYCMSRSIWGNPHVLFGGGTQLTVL", 680]
]}

Q. Looking for the measured Human IL-21R-BaF3 Neutralization IC50 of AbR (antibody, human IgG1, V domains shown, Purified form: human IgG1 double-mutant (L234A, G237A); Framework limits derived; also called VH3/VL18; VH3DM/VL18) VH: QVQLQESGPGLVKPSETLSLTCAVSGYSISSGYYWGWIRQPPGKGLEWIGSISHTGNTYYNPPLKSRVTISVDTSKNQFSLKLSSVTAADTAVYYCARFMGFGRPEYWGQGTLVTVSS VL: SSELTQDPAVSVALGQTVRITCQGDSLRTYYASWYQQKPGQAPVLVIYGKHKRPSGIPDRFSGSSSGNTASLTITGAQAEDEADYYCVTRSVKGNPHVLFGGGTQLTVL , can you help?
A. 560

Q. Can you handle AbT (antibody, human IgG1, V domains shown, Human IgG1 triple-mutant (L234A, L235A, G237A); Framework limits derived; also called VHP/VL9; VHPTM/VL9) VH: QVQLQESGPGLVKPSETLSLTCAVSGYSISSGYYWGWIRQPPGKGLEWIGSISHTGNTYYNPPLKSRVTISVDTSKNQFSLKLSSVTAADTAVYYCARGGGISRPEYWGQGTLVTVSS VL: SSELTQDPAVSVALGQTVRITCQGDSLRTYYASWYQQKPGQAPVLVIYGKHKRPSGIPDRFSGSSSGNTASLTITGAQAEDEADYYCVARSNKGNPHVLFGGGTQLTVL next?
A. 300
